FYI, the data here is from patent US11802107B2.

System: IL-31
measurement-protocol: Anti-CD3/CD28+IL-4-induced IL-31 on PBMCs
Type: cell-based
run-parameters: Homo sapiens, PBMC, anti-CD3/CD28 beads + 50 ng/mL IL-4, 48 hours, ELISA, read-out: TCR/IL-4-PBMCs IL-31 IC50
# IC50 per record follows

{"compound": "C=CC[C@@H]1/C=C(\\C)C[C@H](C)C[C@H](OC)[C@H]2O[C@@](O)(C(=O)C(=O)N3CCCC[C@H]3C(=O)O[C@H](/C(C)=C/[C@@H]3CC[C@@H](O)[C@H](OC)C3)[C@H](C)[C@@H](O)CC1=O)[C@H](C)C[C@@H]2OC [FK506, reference compound]", "result-units": "nM", "IC50": 0.4}
{"compound": "C/C(=C\\CSC[C@H](NC(=O)N1CCC[C@H]1C(=O)O)C(=O)O)CCCC(C)CCCC(C)CCCC(C)C (stereo partly shown)", "result-units": "nM", "IC50": 1}
{"compound": "C/C(=C\\CSC[C@H](NC(=O)COCC(=O)O)C(=O)O)CCCC(C)CCCC(C)CCCC(C)C (stereo partly shown)", "result-units": "nM", "IC50": 1}
{"compound": "N#Cc1ccc(Oc2ccc3c(c2)COB3O)cc1 [AN2728, reference compound]", "result-units": "nM", "IC50": 0.008}

###

Test system: DEFB103 (hBD3)
measurement-protocol: NHEK antimicrobial peptide gene expression, hBD3
Type: cell-based, human
run-parameters: 10 μM, 24 hours, qPCR, normalized to GAPDH
measurement-type: hBD3 gene expression

{"molecule": "C/C(=C\\CSCC(NC(=O)N(CC(=O)O)CC(=O)O)C(=O)O)CCCC(C)CCCC(C)CCCC(C)C (stereo not drawn)", "observed": "4.7 Fold-expression/untreated cells"}
{"molecule": "C/C(=C\\CSC[C@H](NC(=O)N(C)CC(=O)O)C(=O)O)CCCC(C)CCCC(C)CCCC(C)C (stereo partly drawn)", "observed": "9.5 Fold-expression/untreated cells"}
{"molecule": "O=C(O)c1ccccc1O [Salicylic Acid, reference compound]", "observed": "1.2 Fold-expression/untreated cells"}
{"molecule": "O=C(O)CCCCCCCC(=O)O [Azelaic Acid, reference compound]", "observed": "0.9 Fold-expression/untreated cells"}
{"molecule": "O=C(OOC(=O)c1ccccc1)c1ccccc1 [Benzoyl Peroxide, reference compound]", "observed": "1.2 Fold-expression/untreated cells"}
{"molecule": "C/C(=C\\CSC[C@H](NC(=O)N1CCC[C@H]1C(=O)O)C(=O)O)CCCC(C)CCCC(C)CCCC(C)C (stereo partly drawn)", "observed": "2.9 Fold-expression/untreated cells"}

###

System: IL-8
measurement-protocol: P. acnes-induced IL-8 protein on human PBMCs (ELISA)
Format: cell-based
run-parameters: PBMCs + live P. acnes 1:1, test material 30 PM, 24 hours
# IL-8 Protein % inhibition per record follows
measurement-type: IL-8 Protein % inhibition (%)

{"compound": "O=C(O)c1ccccc1O [Salicylic Acid, reference compound]", "measurement-type": "IL-8 Protein % inhibition", "result-units": "%", "observed": 0}
{"compound": "C/C(=C\\CSC[C@H](NC(=O)N(C)CC(=O)O)C(=O)O)CCCC(C)CCCC(C)CCCC(C)C (stereo partly drawn)", "measurement-type": "IL-8 Protein % inhibition", "result-units": "%", "observed": 8}
{"compound": "O=C(O)CCCCCCCC(=O)O [Azelaic Acid, reference compound]", "measurement-type": "IL-8 Protein % inhibition", "result-units": "%", "observed": 43}
{"compound": "C/C(=C\\CSCC(NC(=O)N(CC(=O)O)CC(=O)O)C(=O)O)CCCC(C)CCCC(C)CCCC(C)C (stereo not drawn)", "measurement-type": "IL-8 Protein % inhibition", "result-units": "%", "observed": 74}
{"compound": "O=C(OOC(=O)c1ccccc1)c1ccccc1 [Benzoyl Peroxide, reference compound]", "measurement-type": "IL-8 Protein % inhibition", "result-units": "%", "observed": 78}
{"compound": "C/C(=C\\CSC[C@H](NC(=O)N1CCC[C@H]1C(=O)O)C(=O)O)CCCC(C)CCCC(C)CCCC(C)C (stereo partly drawn)", "measurement-type": "IL-8 Protein % inhibition", "result-units": "%", "observed": 67}

###

Test system: TSLP
measurement-protocol: S. aureus-induced TSLP on NHEKs
Assay type: cell-based
run-parameters: Homo sapiens; NHEK, live S. aureus ATCC 33591 1:1, 24 hours, ELISA; read-out: S. aureus-NHEK TSLP Protein IC50
measurement-type: IC50 (µM)

{"compound": "C/C(=C\\CSCC(NC(=O)NCC(=O)O)C(=O)O)CCCC(C)CCCC(C)CCCC(C)C (stereo not shown)", "observed": 9}
{"compound": "N#Cc1ccc(Oc2ccc3c(c2)COB3O)cc1 [AN2728, reference compound]", "observed": 5}
{"compound": "C/C(=C\\CSC[C@H](NC(=O)N(C)CC(=O)O)C(=O)O)CCCC(C)CCCC(C)CCCC(C)C (stereo partly shown)", "observed": 3}
{"compound": "C/C(=C\\CSC[C@H](NC(=O)COCC(=O)O)C(=O)O)CCCC(C)CCCC(C)CCCC(C)C (stereo partly shown)", "observed": 10}

###

System: IL17A (IL-17A)
measurement-protocol: P. acnes-induced IL-17 gene on human PBMCs (qPCR)
Format: cell-based
run-parameters: PBMC, PBMCs + live P. acnes 1:1, test material 30 PM, 24 hours
Experimental: Cryopreserved human Peripheral Blood Mononuclear cells (PBMCs) from healthy adult donors were obtained from Zen Bio, Inc (Cat No. SER-PBMC-F). […] Quantitative PCR (qPCR) was performed using the TaqMan® Fast Advanced Master Mix (Applied Biosystems®; Cat No. 4444556) and specific TaqMan®-probes human gene primers CXCL8 (IL-8), IL1B (IL-1b), TNF (TNF-α), IL17A (IL-17A) and GAPDH to calculate the relative gene fold expression change per treatment. […]

{"molecule": "C/C(=C\\CSCC(NC(=O)N(CC(=O)O)CC(=O)O)C(=O)O)CCCC(C)CCCC(C)CCCC(C)C (stereo not shown)", "inhibition at 30 pM, %": 0}
{"molecule": "C/C(=C\\CSC[C@H](NC(=O)N1CCC[C@H]1C(=O)O)C(=O)O)CCCC(C)CCCC(C)CCCC(C)C (stereo partly shown)", "inhibition at 30 pM, %": 0}
{"molecule": "CC(=O)NC(CC(=O)NC(CSC/C=C(\\C)CCCC(C)CCCC(C)CCCC(C)C)C(=O)O)C(=O)O (stereo not shown)", "inhibition at 30 pM, %": 72}
{"molecule": "CCN(CC(=O)O)C(=O)NC(CSC/C=C(\\C)CCCC(C)CCCC(C)CCCC(C)C)C(=O)O (stereo not shown)", "inhibition at 30 pM, %": 7}

###

Tested on: P. acnes (ATCC 6919)
measurement-protocol: Minimal bactericidal concentration (MBC) against P. acnes
Assay type: cell-based, Propionibacterium acnes
run-parameters: Cutibacterium acnes, ATCC6919; P. acnes 10^7 CFU/mL, in PBS, anaerobic conditions
measurement-type: MBC

{"compound": "O=C(O)CCCCCCCC(=O)O [Azelaic Acid, reference compound]", "assay-target": "P. acnes (ATCC 6919)", "measurement-type": "MBC", "observed": "> 2000 µg/mL"}
{"compound": "C/C(=C\\CSC[C@H](Nc1ncc(C(=O)O)c(C)n1)C(=O)O)CCCC(C)CCCC(C)CCCC(C)C (stereo partly shown) [BL]", "assay-target": "P. acnes (ATCC 6919)", "measurement-type": "MBC", "observed": "> 62 µg/mL"}
{"compound": "O=C(OOC(=O)c1ccccc1)c1ccccc1 [Benzoyl Peroxide, reference compound]", "assay-target": "P. acnes (ATCC 6919)", "measurement-type": "MBC", "observed": "> 200 µg/mL"}
{"compound": "C/C(=C\\CSCC(Nc1ccnc(N(C)CC(=O)O)n1)C(=O)O)CCCC(C)CCCC(C)CCCC(C)C (stereo not shown) [BM]", "assay-target": "P. acnes (ATCC 6919)", "measurement-type": "MBC", "observed": "> 62 µg/mL"}
